system: Sam68 (KHDRBS1); assay: Sam68 small-molecule binders, primary screen, biochemical, small-molecule microarray, 635 nm fluorescence (AID 1125); conditions: small-molecule microarray binding, higher = more signal;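 further: score merges 667 nm channel intensity with signal to noise over triplicate slides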
PROPERTY_LABEL: composite z-score
Reply with the value as a number alone.

# count of solved cases: 6
[N-]=[N+]=NCc1ccccc1C[C@]1(C(=O)N2CCOCC2)N=C(c2ccc(OCCCO)cc2)O[C@H]1c1ccccc1N=[N+]=[N-]
1.34
COc1cc(OC)c(C(O)C2C=CC3C(=O)NC(=O)C3N2Nc2ccc(Cl)cc2Cl)cc1Br (configuration not stated)
1.22
CC(C)(C)OC(=O)CC[C@@]1(C(=O)NCCN2CCOCC2)N=C(c2ccc(OCCCO)cc2)O[C@@H]1c1ccccc1N=[N+]=[N-]
1.33
CCCCC(=C=CC[C@@H](O)c1ccccc1OCCO)CCO
0.0301
[N-]=[N+]=NCc1ccccc1C[C@]1(C(=O)NCC(O)CO)N=C(c2ccc(OCCCO)cc2)O[C@H]1c1ccccc1 (some centres not stated)
-0.236
O=C(NCc1ccc(F)cc1)[C@H]1C[C@H]2C(=O)N[C@@H](Cc3ccccc3)C(=O)N2[C@H]1c1ccc(O)cc1
-0.109

Attention now shifts to the item below.
Request: Name the reported composite z-score value associated with the molecule COc1ccc(C(=O)Nc2ccc(CN3C(=O)[C@@]4(O[C@@H](CC(=O)N5CCC[C@H]5CO)[C@H]([Si](C)(C)c5ccc(OC)cc5)[C@H]4C)c4ccccc43)cc2)cc1
Response: 1.31

====

molecular target: Follistatin (Homo sapiens); test: follistatin binders on small-molecule microarrays, primary screen, biochemical, small-molecule microarray, 635/667 nm fluorescence (AID 1132); details: FST binding, 635 nm fluorescence, higher = more signal
Label true when composite z-score >= 0.7; otherwise false.

CC(C)(C)OC(=O)CC[C@@]1(C(N)=O)N=C(c2ccc(OCCCO)cc2)O[C@@H]1c1ccccc1
false
COc1ccc([Si](C)(C)[C@H]2[C@H](CCO)O[C@@]3(C(=O)N(C)c4c(Br)cc(C)cc43)[C@@H]2C)cc1
false
COCCOC(=O)N1C(=O)[C@@]2(c3cc(C#CCCO)ccc31)[C@H](c1ccc(OCCO)cc1)N1[C@H](c3ccccc3)[C@H](c3ccccc3)OC(=O)[C@H]1[C@@H]2C(=O)N1CCN(c2ncccn2)CC1
true
CC(C)(C)C(=O)N[C@@H](c1ccc(Cl)cc1)[C@]1(C)C[C@H]1C1CCCCC1
false
O=C1C2C=CC(C(O)c3c(F)cccc3Cl)N(Nc3ccccc3)C2C(=O)N1c1ccccc1 (stereo not drawn)
true

Request: Could you tell me if the measured composite z-score of CCCCCN1CC=CC23O[C@@H]4/C=C\CCCOC(=O)C4[C@H]2C(=O)N(C(CO)C(C)C)[C@@H]3C1=O (stereo partly drawn) reaches 0.7 or more?
Response: false

Request: Also O=C1NCC(=O)N2[C@@H]1C[C@@H](C(=O)O)[C@H]2c1cccc(OCCO)c1 ?
Response: true

====

system: XIP peptide (Xip251-270); experiment: small-molecule binders of XIP peptide, primary screen, biochemical, small-molecule microarray, fluorescence 635/667 nm, 0.5 µg/mL protein (AID 1183); conditions: small-molecule microarray binding, fluorescence 635 nm; higher = more signal
composite z-score for assorted molecules
Reply with the value as a number alone.

C=CCC(OC(C)=O)[C@@H]1[C@@H](N(Cc2cccc3ccccc23)C(=O)c2ccc(-c3ccccc3)cc2)c2cc(OCCCO)ccc2N1C(=O)Cc1ccc(OC)cc1 (some centres not stated)
0.637
CN(C)CCCNC(=O)[C@@]1(c2ccc([N+](=O)[O-])cc2)CC(=O)N(C2CCCCC2)[C@@H]1c1ccc(CO)cc1
-0.0124
CC(C)N1C(=O)[C@@]2(Cc3ccccc31)c1ccccc1C(=O)N(C1CCCCC1)[C@H]2c1ccc(CO)cc1
0.709
[N-]=[N+]=NCc1ccccc1C[C@]1(C(=O)NCC(O)CO)N=C(c2ccc(OCCCO)cc2)O[C@H]1c1ccccc1 (some centres not stated)
-0.148
[N-]=[N+]=NCc1ccccc1[C@@H]1OC(c2ccc(OCCCO)cc2)=N[C@]1(Cc1ccccc1N=[N+]=[N-])C(=O)N1CCOCC1
0.706
CS(=O)(=O)CCOC(=O)C1=CC(CCCO)=CC(c2ccc(CN3CCCC3)cc2)N(Cc2cc3c(cc2Br)OCO3)C=C1C(=O)OCCS(C)(=O)=O (configuration not stated)
0.732

Attention now shifts to the item below.
Request: Name the reported composite z-score value associated with the molecule CCCCCC1=C2CNC(CCC)(C(=O)OC)C=C2C(C)C1=O (configuration not stated)
Response: -0.0874
